Measured values drawn from the supplement of paper PMC10567573 for this set.

Reported values of protein stability index for individual entries
method_summary: protein stability index of a GFP-peptide fusion (GPS, HEK-293T) (PSI 1-6); higher = more stable;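 note: 24-mer peptide tiles fused after GFP, lentivirally expressed, FACS-sorted into six equal bins by GFP/DsRed ratio, decoded by Illumina sequencing, PSI is the read-weighted mean bin number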
settings: treatment: DMSO; c terminus: a fixed tail appended
measured_quantity: protein stability index

>>> reported_value("NIIDIYKQESTRPEKKSDQPMCEE [TRIM55]")
5.05
>>> reported_value("SDSGSDKSLEGGGTAFDAETDSEM [SMG5]")
5.54
>>> reported_value("SHRFPEDHDPTIEDAYKIRIRIDD [RIT1]")
3.98
>>> reported_value("MEGTPTIKSKKKLLQIIDTTLLKC [VPS39]")
2.25
>>> reported_value("LEHGADPTVKDLIGGFTALHYAAM [ASB7]")
2.5
>>> reported_value("IDDLEDDPVVNGERSGCALTDAVA [TCF25]")
5.3
>>> reported_value("SILRAPAYPLELQGQPDPAPRPGP [MOSPD3]")
4.53
>>> reported_value("PILRLLPQGISPVSQHWATWALYN [ZER1]")
2.78
>>> reported_value("MTKAQESLTLEDVAVDFTWEEWQF [ZNF649]")
3.36
>>> reported_value("VSGSWERDQQVEAAQRALVEVLGP [RETREG3]")
3.9
>>> reported_value("AVSESYSAPGACEEPTERGNLEVG [FBXO34]")
5.49
>>> reported_value("LYAFFTRTHGDMHSLVRSRHRIPE [TRIB3]")
2.18
>>> reported_value("GPAASEGAEQPPDLHCVLVTNPHS [GADD45A]")
4.97
>>> reported_value("YEFNPDFLEEAHEWNQKRARKAMR [N4BP2L1]")
3.88
>>> reported_value("SEAKLYGRCELARVLHDFGLDGYR [SPACA3]")
2.23
>>> reported_value("CFSTGLSRRVLLTNVVTGHRQSFG [DCAF4]")
2.1
>>> reported_value("KEQRKQMKGRGQLEKPPAPNQAMV [TBC1D10A]")
4.95
>>> reported_value("EAGSAGHVEVARLLLENGAGINTH [ANKRD17]")
4.11
>>> reported_value("NKILQVFWEEHKASLGREESRAPS [CBY2]")
3.02
>>> reported_value("VNDLRGSDSIAYDKGEKLLRCKLA [ADD1]")
3.34
>>> reported_value("LDGQLDFEEFVHYLQDHEKKLRLV [SLC25A25]")
3.3
>>> reported_value("FKDEWTQLDMFYRNWALKESFIKA [AASDHPPT]")
2.02
>>> reported_value("FLWGPRALVETSYVKVLHHMVKIS [MAGEA3]")
2.01
>>> reported_value("LGEDNQPETQLFWDKEPWFWHDTL [TLE6]")
3.37
>>> reported_value("KSKVVGDRENGSDNLPSSAGSGDK [TPD52L2]")
5.39
>>> reported_value("DERVLENVEHYQELKKMVQQSDLG [ALG2]")
4.95
>>> reported_value("TGWFGGGFTSYLGFGDEDTGLELI [MIA2]")
2.07

###

method_summary: protein stability index of a GFP-peptide fusion (GPS, HEK-293T) (PSI 1-6); higher = more stable
settings: treatment: DMSO; c terminus: a fixed tail appended
measured_quantity: protein stability index

>>> reported_value("LYQTELVENECYQVFLDRINRADY [TOR1AIP2]")
2.45
>>> reported_value("LLCGAAFGRLVANVLKSYIGLGHI [CLCN6]")
2.66
>>> reported_value("MMRGLSYSLTTSSTHKSSLCKVEI [RAB40A]")
2.31
>>> reported_value("PAPEAESKQTEKDPGVQELEALID [EFHC1]")
5.51
>>> reported_value("AMETDGPLFEDVQMLRKTVKDEAH [PPP2R5C]")
5.24
>>> reported_value("GDLGDPFHLGLEDILMEEEEGVVG [TFE3]")
5.33
>>> reported_value("NMSREPFSTRALVLSILHATLPGI [SOAT2]")
3.18
